tested on: 885724-159-R-J1-PDC KRAS PDC multicell spheroid viability; assay: Anticancer human tumor 885724-159-R-J1-PDC patient-derived pancreatic adenocarcinoma cell line growth inhibition [KRAS2]; details: second compound 3.16 µM; first compound 3.16 µM; hits give low values
property: viability, T/C (%)
Give the number; % is assumed, so skip it.

Below, each entry is followed by its recorded viability, T/C result.
molecule	assayed_target	result_units	readout_value
CC(=O)OC12COC1CC(O)C1(C)C(=O)C(O)C3=C(C)C(OC(=O)C(O)C(NC(=O)OC(C)(C)C)c4ccccc4)CC(O)(C(OC(=O)c4ccccc4)C21)C3(C)C (stereo not given) + COc1cc2nc(C)nc(NC(C)c3cc(N)cc(C(F)(F)F)c3)c2cc1OC1CCOC1	885724-159-R-J1-PDC KRAS PDC multicell spheroid viability	%	119
O=C(c1cc(Cc2n[nH]c(=O)c3ccccc23)ccc1F)N1CCN(C(=O)C2CC2)CC1 + CNCc1ccccc1-c1csc(C(C)Nc2nc(C)nc3cc(OC)c(OC)cc23)c1	885724-159-R-J1-PDC KRAS PDC multicell spheroid viability	%	1
COC(=O)c1ccc2c(C(=Nc3ccc(N(C)C(=O)CN4CCN(C)CC4)cc3)c3ccccc3)c(O)[nH]c2c1 + CNCc1ccccc1-c1csc(C(C)Nc2nc(C)nc3cc(OC)c(OC)cc23)c1	885724-159-R-J1-PDC KRAS PDC multicell spheroid viability	%	1.26
CC(C)NCC(C(=O)N1CCN(c2ncnc3c2C(C)CC3O)CC1)c1ccc(Cl)cc1 (stereo not given) + C=CC(=O)N1CCN(c2nc(OCC3CCCN3C)nc3c2CCN(c2cccc4cccc(C)c24)C3)CC1CC#N	885724-159-R-J1-PDC KRAS PDC multicell spheroid viability	%	16.4

Below: the item to evaluate.
Identify viability, T/C associated with the molecule COC(=O)c1ccc2c(C(=Nc3ccc(N(C)C(=O)CN4CCN(C)CC4)cc3)c3ccccc3)c(O)[nH]c2c1 + COc1cc2nc(C)nc(NC(C)c3cc(N)cc(C(F)(F)F)c3)c2cc1OC1CCOC1 3.95

====

test system: 885724-159-R-J1-PDC KRAS PDC multicell spheroid viability; test: Anticancer human tumor 885724-159-R-J1-PDC cell line growth inhibition [KRAS2]; details: second compound 0.1 µM; first compound 0.000316 µM; hits give low values;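 also: spheroids exposed to agents for 7 days before readout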
Item-by-item account of viability, T/C
Give the number; % is assumed, so skip it.

Below, each entry is followed by its recorded viability, T/C result.
compound	viability, T/C / %
CC(=O)Nc1cccc(-n2c(=O)n(C3CC3)c(=O)c3c(Nc4ccc(I)cc4F)n(C)c(=O)c(C)c32)c1 + CC1OCC2(CCN(c3cnc(Sc4ccnc(N)c4Cl)c(N)n3)CC2)C1N	62
Cn1ncnc1[C@H]1c2n[nH]c(=O)c3cc(F)cc(c23)N[C@@H]1c1ccc(F)cc1 + C=CC(=O)N1CCN(c2nc(=O)n(-c3c(C)ccnc3C(C)C)c3nc(-c4c(O)cccc4F)c(F)cc23)C(C)C1	105
CC(C)n1nc(-c2ccc3oc(N)nc3c2)c2c(N)ncnc21 + COc1cc2nc(C)nc(NC(C)c3cc(N)cc(C(F)(F)F)c3)c2cc1OC1CCOC1	91.2

Below: the item to evaluate.
Specify the recorded viability, T/C for CC(=O)Nc1cccc(-n2c(=O)n(C3CC3)c(=O)c3c(Nc4ccc(I)cc4F)n(C)c(=O)c(C)c32)c1 + CNCc1ccccc1-c1csc(C(C)Nc2nc(C)nc3cc(OC)c(OC)cc23)c1 , system: 885724-159-R-J1-PDC KRAS PDC multicell spheroid viability. 71.2

====

test system: 885724-159-R-J1-PDC KRAS PDC multicell spheroid viability; assay: Anticancer human tumor 885724-159-R-J1-PDC cell line growth inhibition [KRAS2]; settings: second compound 0.316 µM; first compound 0.1 µM; hits give low values;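 also: spheroids exposed to agents for 7 days before readout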
Field: label. Allowed values: 1 (viability, T/C < 90%) or -1 (viability, T/C >= 90%).

molecule	label
CCNC(=O)CC1N=C(c2ccc(Cl)cc2)c2cc(OC)ccc2-n2c(C)nnc21 (centres undefined) + C=CC(=O)N1CCN(c2nc(=O)n(-c3c(C)ccnc3C(C)C)c3nc(-c4c(O)cccc4F)c(F)cc23)C(C)C1	-1
CC1COCCN1c1cc(-c2ccnn2C)c2ccnc(-c3ccn[nH]3)c2n1 (centres undefined) + C=CC(=O)N1CCN(c2nc(OCC3CCCN3C)nc3c2CCN(c2cccc4cccc(C)c24)C3)CC1CC#N	1
CC(C)n1nc(-c2ccc3oc(N)nc3c2)c2c(N)ncnc21 + C=CC(=O)N1CCN(c2nc(OCC3CCCN3C)nc3c2CCN(c2cccc4cccc(C)c24)C3)CC1CC#N	1

I'd appreciate it if you could check whether CC1(C)CCC(CN2CCN(c3ccc(C(=O)NS(=O)(=O)c4ccc(NCC5CCOCC5)c([N+](=O)[O-])c4)c(Oc4cnc5[nH]ccc5c4)c3)CC2)=C(c2ccc(Cl)cc2)C1 + C=CC(=O)N1CCN(c2nc(=O)n(-c3c(C)ccnc3C(C)C)c3nc(-c4c(O)cccc4F)c(F)cc23)C(C)C1 has viability, T/C smaller than 90%. -1

I'd appreciate it if you could check whether CC1OCC2(CCN(c3cnc(Sc4ccnc(N)c4Cl)c(N)n3)CC2)C1N (centres undefined) + C=CC(=O)N1CCN(c2nc(OCC3CCCN3C)nc3c2CCN(c2cccc4cccc(C)c24)C3)CC1CC#N has viability, T/C smaller than 90%. 1

I'd appreciate it if you could check whether COc1cc(Nc2ncc3c(n2)-c2ccc(Cl)cc2C(c2c(F)cccc2OC)=NC3)ccc1C(=O)O + COc1cc2nc(C)nc(NC(C)c3cc(N)cc(C(F)(F)F)c3)c2cc1OC1CCOC1 has viability, T/C smaller than 90%. -1

I'd appreciate it if you could check whether CC(=O)OC12COC1CC(O)C1(C)C(=O)C(O)C3=C(C)C(OC(=O)C(O)C(NC(=O)OC(C)(C)C)c4ccccc4)CC(O)(C(OC(=O)c4ccccc4)C21)C3(C)C (centres undefined) + C=CC(=O)N1CCN(c2nc(OCC3CCCN3C)nc3c2CCN(c2cccc4cccc(C)c24)C3)CC1CC#N has viability, T/C smaller than 90%. -1

====

system: 885724-159-R-J1-PDC KRAS PDC multicell spheroid viability; test: Anticancer human tumor 885724-159-R-J1-PDC cell line growth inhibition [KRAS2]; settings: second compound 3.16 µM; first compound 0.0001 µM; hits give low values;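 also: spheroids exposed to agents for 7 days before readout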
Item-by-item account of viability, T/C
Give the number; % is assumed, so skip it.

Specify the recorded viability, T/C for CC(=O)Nc1cccc(-n2c(=O)n(C3CC3)c(=O)c3c(Nc4ccc(I)cc4F)n(C)c(=O)c(C)c32)c1 + CNCc1ccccc1-c1csc(C(C)Nc2nc(C)nc3cc(OC)c(OC)cc23)c1 , system: 885724-159-R-J1-PDC KRAS PDC multicell spheroid viability. 1.26

Specify the recorded viability, T/C for CC(=O)Nc1cccc(-n2c(=O)n(C3CC3)c(=O)c3c(Nc4ccc(I)cc4F)n(C)c(=O)c(C)c32)c1 + C=CC(=O)N1CCN(c2nc(OCC3CCCN3C)nc3c2CCN(c2cccc4cccc(C)c24)C3)CC1CC#N , system: 885724-159-R-J1-PDC KRAS PDC multicell spheroid viability. 45.4

Specify the recorded viability, T/C for CC(=O)Nc1cccc(-n2c(=O)n(C3CC3)c(=O)c3c(Nc4ccc(I)cc4F)n(C)c(=O)c(C)c32)c1 + C=CC(=O)N1CCN(c2nc(=O)n(-c3c(C)ccnc3C(C)C)c3nc(-c4c(O)cccc4F)c(F)cc23)C(C)C1 , system: 885724-159-R-J1-PDC KRAS PDC multicell spheroid viability. 84.6

Specify the recorded viability, T/C for CC(=O)Nc1cccc(-n2c(=O)n(C3CC3)c(=O)c3c(Nc4ccc(I)cc4F)n(C)c(=O)c(C)c32)c1 + CC1OCC2(CCN(c3cnc(Sc4ccnc(N)c4Cl)c(N)n3)CC2)C1N , system: 885724-159-R-J1-PDC KRAS PDC multicell spheroid viability. 57

Specify the recorded viability, T/C for CC(=O)Nc1cccc(-n2c(=O)n(C3CC3)c(=O)c3c(Nc4ccc(I)cc4F)n(C)c(=O)c(C)c32)c1 + COc1cc2nc(C)nc(NC(C)c3cc(N)cc(C(F)(F)F)c3)c2cc1OC1CCOC1 , system: 885724-159-R-J1-PDC KRAS PDC multicell spheroid viability. 74.9

====

tested on: 885724-159-R-J1-PDC KRAS PDC multicell spheroid viability; experiment: Anticancer human tumor 885724-159-R-J1-PDC cell line growth inhibition [KRAS2]; details: second compound 0.316 µM; first compound 0.000316 µM; hits give low values;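 also: spheroids exposed to agents for 7 days before readout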
property: viability, T/C

Below, each entry is followed by its recorded viability, T/C result.
compound	readout_value
CC(C)n1nc(-c2ccc3oc(N)nc3c2)c2c(N)ncnc21 + C=CC(=O)N1CCN(c2nc(=O)n(-c3c(C)ccnc3C(C)C)c3nc(-c4c(O)cccc4F)c(F)cc23)C(C)C1	98.8%
Cn1ncnc1[C@H]1c2n[nH]c(=O)c3cc(F)cc(c23)N[C@@H]1c1ccc(F)cc1 + C=CC(=O)N1CCN(c2nc(OCC3CCCN3C)nc3c2CCN(c2cccc4cccc(C)c24)C3)CC1CC#N	110%

Below: the item to evaluate.
Specify the recorded viability, T/C for CC(=O)Nc1cccc(-n2c(=O)n(C3CC3)c(=O)c3c(Nc4ccc(I)cc4F)n(C)c(=O)c(C)c32)c1 + C=CC(=O)N1CCN(c2nc(OCC3CCCN3C)nc3c2CCN(c2cccc4cccc(C)c24)C3)CC1CC#N , system: 885724-159-R-J1-PDC KRAS PDC multicell spheroid viability. 74.8%
